Molecular target: T1, Human MMP-9 catalytic domain (BIOMOL, SE-244) (human, UniProt P14780 107-457, limits assumed)
T1 construct: domain: catalytic domain; also called Cat-huMMP-9; cat-huMMP-9
T1 sequence (P14780 107-457 limits assumed): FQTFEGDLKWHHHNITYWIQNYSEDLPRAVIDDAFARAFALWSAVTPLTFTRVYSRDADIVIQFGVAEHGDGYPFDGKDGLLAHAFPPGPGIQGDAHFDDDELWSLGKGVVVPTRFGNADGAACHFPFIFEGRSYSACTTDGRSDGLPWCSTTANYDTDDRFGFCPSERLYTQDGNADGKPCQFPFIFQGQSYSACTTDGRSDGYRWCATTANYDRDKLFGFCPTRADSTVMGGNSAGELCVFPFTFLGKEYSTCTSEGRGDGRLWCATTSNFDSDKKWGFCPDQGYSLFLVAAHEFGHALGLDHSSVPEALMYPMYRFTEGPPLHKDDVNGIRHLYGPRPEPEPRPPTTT
Assay: Ki,app, enzyme inhibition assay (fluorogenic peptide substrate), IgG
READOUT KIND: Ki
The reply must contain the numeric value and, after it, the unit.

Q) Using the record for X0106-C03 (antibody, V domains shown, Produced and tested as IgG1; germlined, optimized version of M0274-G08; printed as X0106-C04 in some sentences; also called X0106-C04) VH: EVQLLESGGGLVQPGGSLRLSCAASGFTFSVYDMWWVRQAPGKGLEWVSVIYPSGGATYYADSVKGRFTISRDNSKNTLYLQMNSLRAEDTAVYYCAKDRAYGDYVGWNGFDYWGQGTLVTVSS VL: EIVLTQSPATLSLSPGERATLSCRASQSISSFLAWYQQKPGQAPRLLIYDASYRATGIPARFSGSGSGTDFTLTISSLEPEDFAVYYCQQRGNWPITFGQGTRLEIK , report its Ki.
A) 0.14 nM
